test system: Mycobacterium tuberculosis H37Ra; assay: Antimycobacterial microdilution broth MIC (resazurin), Mtb H37Ra; assay type: cell-based; details: Mycobacterium tuberculosis, H37RA, read-out: MIC Mtb H37Ra (μM)

Compound	MIC [µM]
O=C(Cc1ccccc1)Nc1ccccn1	147
CO[C@H]1/C=C/O[C@@]2(C)Oc3c(C)c(O)c4c(O)c(c(/C=N/N5CCN(C)CC5)c(O)c4c3C2=O)NC(=O)/C(C)=C\C=C\[C@H](C)[C@H](O)[C@@H](C)[C@@H](O)[C@@H](C)[C@H](OC(C)=O)[C@@H]1C [RIF, rifampicin, reference compound]	0.0037
O=C(Cc1ccc(F)cc1)Nc1ccc(Cl)cn1	59
